assay: LogD7.4 (Chrom Log D); format: physicochemical; conditions: chromatographic system (Chrom Log D); pH 7.4, NEU; read-out: LogD 7.4 (NEU)
REPORTED PROPERTY: chromatographic logD

{"columns": ["MOLECULE", "OBS VALUE"],
 "data": [
  ["COc1ccc2nc(-c3ccccn3)c(N(C)c3cc(F)cc(F)c3)n2c1 [OSA_000998]", 4],
  ["CS(=O)(=O)c1ccc2nc(-c3ccccn3)c(Nc3ccc(F)cc3)n2c1 [OSA_001020]", 2.4],
  ["Cc1ccc(-c2c(-c3ccccn3)nc3cc(Cl)ccn23)cc1 [OSA_000978]", 3.1],
  ["CCN(CC)c1ccc(-c2c(-c3ccccn3)nc3ccccn23)cc1 [OSA_001011]", 4.3],
  ["c1ccc(-c2nc3ccccn3c2-c2ccc3sccc3c2)nc1 [OSA_000871]", 3.3],
  ["CSc1ccc2nc(-c3ccccn3)c(N(C)c3ccc(F)cc3)n2c1 [OSA_001004]", 4.5],
  ["CN(c1ccc(F)cc1)c1c(-c2ccccn2)nc2cccc(F)n12 [OSA_001005]", 1.8],
  ["Fc1ccc(Nc2c(-c3ccccn3)nc3ccccn23)cc1 [OSA_000987]", 3.3],
  ["COc1ccnc(-c2nc3cc(OC)ccn3c2N(C)c2ccc(F)cc2)c1 [OSA_001000]", 3.1],
  ["COc1cccn2c(N(C)c3ccc(F)cc3)c(-c3ccccn3)nc12 [OSA_001001]", 3.5],
  ["c1cncc(-c2nc3n(c2-c2ccc4occc4c2)CCC3)c1 [OSA_000861]", 3.2],
  ["c1ccc(-c2nc3n(c2-c2ccc4occc4c2)CCC3)cc1 [OSA_000869]", 4.2],
  ["c1ccc(-c2nc3n(c2-c2ccc4occc4c2)CCC3)nc1 [compound 821]", 2.7],
  ["Fc1ccc(-c2c(-c3ccccn3)nc3ccccn23)cc1 [OSA_000859]", 3],
  ["CC(C)CN(c1ccc(F)cc1)c1c(-c2ccccn2)nc2ccc(F)cn12 [OSA_001024]", "> 4.2"]
]}

---

test: Aqueous solubility; format: physicochemical; settings: thermodynamic from solid; NEU; read-out: Aqueous Solubility (NEU)
REPORTED PROPERTY: solubility (µM)

{"columns": ["COMPOUND", "OBS VALUE"],
 "data": [
  ["COc1ccnc(-c2nc3ccccn3c2N(C)c2ccc(F)cc2)c1 [OSA_001007]", 26],
  ["CCN(CC)c1ccc(-c2c(-c3ccccn3)nc3ccccn23)cc1 [OSA_001011]", 38],
  ["Fc1ccc(Nc2c(-c3ccccn3)nc3ccccn23)cc1 [OSA_000987]", 0.5],
  ["Fc1ccc(Nc2c(-c3ccccn3)nc3sccn23)cc1 [OSA_000984]", 54],
  ["c1ccc(-c2nc3n(c2-c2ccc4sc5ccccc5c4c2)CCC3)nc1 [OSA_000831]", 3],
  ["Cc1cccc(-c2c(-c3ccccn3)nc3n2CCC3)c1 [OSA_000976]", 556],
  ["CN(c1ccc(F)cc1)c1c(-c2ccccn2)nc2c(F)cccn12 [OSA_001006]", 26],
  ["CCN(c1ccc(F)cc1)c1c(-c2ccccn2)nc2ccccn12 [OSA_000981]", 31],
  ["Clc1ccc(-c2c(-c3ccccn3)nc3n2CCC3)cc1Cl [OSA_000876]", 3],
  ["CN(c1ccc(F)cc1)c1c(-c2ccccn2)nc2ccc(Br)cn12 [OSA_001003]", 4],
  ["COc1ccc2nc(-c3ccccn3)c(N(C)c3cc(F)cc(F)c3)n2c1 [OSA_000998]", 8],
  ["CN(c1ccc(F)cc1)c1c(-c2ccccn2)nc2cccc(F)n12 [OSA_001005]", 64],
  ["COc1ccn2c(-c3ccccc3)c(-c3ccccn3)nc2c1 [OSA_000860]", 79],
  ["c1cc(-c2nc3n(c2-c2ccc4occc4c2)CCC3)ccn1 [OSA_000862]", 89],
  ["Clc1ccc(-c2c(-c3ccccn3)nc3n2CCC3)cc1 [OSA_000875]", 4],
  ["Fc1ccc(N(CC2CC2)c2c(-c3ccccn3)nc3ccccn23)cc1 [OSA_000979]", 2],
  ["c1ccc(-c2nc3n(c2-c2ccc4occc4c2)CCC3)cc1 [OSA_000869]", 21],
  ["CSc1ccc2nc(-c3ccccn3)c(N(C)c3ccc(F)cc3)n2c1 [OSA_001004]", 7]
]}

---

system: MRC-5SV2 (human lung fibroblast cell line); assay: Toxicity against MRC-5SV2; assay type: cell-based; details: MRC5 cells
REPORTED PROPERTY: MRC5 TC50 (µM)

{"columns": ["SMILES STRING", "REPORTED PROPERTY", "READOUT UNIT", "OBS VALUE"],
 "data": [
  ["c1ccc(-c2nc3ccccc3n2-c2ccc(N3CCCCC3)cc2)nc1", "MRC5 TC50", "µM", 19.81],
  ["FC(F)(F)c1ccc(-c2c(-c3ccccn3)nc3n2CCC3)cc1", "MRC5 TC50", "µM", 8.17],
  ["CC(=O)N(c1ccc(F)cc1)c1c(-c2ccccn2)nc2ccccn12", "MRC5 TC50", "µM", 64],
  ["COc1cc(-c2c(-c3ccccn3)nc3n2CCC3)ccc1C#N", "MRC5 TC50", "µM", 27.86],
  ["COc1ccn2c(-c3ccccc3)c(-c3ccccn3)nc2c1", "MRC5 TC50", "µM", 3.92],
  ["Cc1ccc2nc(-c3ccccc3)c(CNc3cccc(C(F)(F)F)c3)n2c1", "MRC5 TC50", "µM", 64],
  ["COc1ccn2c(-c3cccc(Cl)n3)c(-c3ccccn3)nc2c1", "MRC5 TC50", "µM", 24.2]
]}

---

tested on: PMM (primary mouse macrophages); test: Toxicity against PMM; type: cell-based; conditions: PMM

{"columns": ["SMILES STRING", "ASSAY SYSTEM", "READOUT UNIT", "PMM TC50"],
 "data": [
  ["COc1ccn2c(-c3cccc(Cl)n3)c(-c3ccccn3)nc2c1", "PMM (primary mouse macrophages)", "µM", 64],
  ["Cc1ccc2nc(-c3ccccc3)c(CNc3ccc(F)cc3)n2c1", "PMM (primary mouse macrophages)", "µM", 64],
  ["COc1ccn2c(-c3ccccc3)c(-c3ccccn3)nc2c1", "PMM (primary mouse macrophages)", "µM", 8],
  ["Cc1ccn2c(CNc3ccc(F)cc3)c(-c3ccccn3)nc2c1", "PMM (primary mouse macrophages)", "µM", 64]
]}

---

test system: MRC-5SV2 (human lung fibroblast cell line); experiment: Toxicity against MRC-5SV2; assay type: cell-based

{"columns": ["SMILES STRING", "READOUT UNIT", "MRC5 TC50"],
 "data": [
  ["Fc1ccc(-c2c(-c3ccccn3)nc3n2CCC3)cc1", "mg/L", 2.1],
  ["Cc1ccn2cc(-c3ccccn3)nc2c1", "mg/L", 4.6],
  ["c1ccc(-n2c(-c3ccccn3)nc3ccccc32)cc1", "mg/L", 17.4],
  ["FC(F)(F)c1ccc(-c2c(-c3ccccn3)nc3n2CCC3)cc1", "mg/L", 2.7],
  ["Fc1cc(-c2c(-c3ccccn3)nc3n2CCC3)ccn1", "mg/L", 8.6],
  ["CCCN(c1ccc(F)cc1)c1c(-c2ccccn2)nc2ccccn12", "mg/L", 1.5],
  ["Fc1ccc(N(CC2CC2)c2c(-c3ccccn3)nc3ccccn23)cc1", "mg/L", 2.8],
  ["Fc1ccc(Nc2c(-c3ccccn3)nc3ccccn23)cc1", "mg/L", 2.3],
  ["Fc1ccc(NCc2c(-c3ccccn3)nc3ccccn23)cc1", "mg/L", 20.4],
  ["CC(=O)N(c1ccc(F)cc1)c1c(-c2ccccn2)nc2ccccn12", "mg/L", 22.2],
  ["N#Cc1ccc(-n2c(-c3ccccn3)nc3ccccc32)cc1", "mg/L", 19.0],
  ["Fc1cccc(-c2c(-c3ccccn3)nc3n2CCC3)c1", "mg/L", 2.0],
  ["c1ccc(-c2nc3ccccc3n2-c2ccc(N3CCCCC3)cc2)nc1", "mg/L", 7.0],
  ["COc1ccn2c(-c3ccccc3)c(-c3ccccn3)nc2c1", "mg/L", 1.2],
  ["Fc1ccc(-c2c(-c3ccccn3)nc3ccccn23)cc1", "mg/L", 3.0],
  ["c1ccc(-c2nc3ccccc3n2-c2ccc3occc3c2)nc1", "mg/L", 19.9],
  ["COc1ccn2c(-c3ccc(F)cc3)c(-c3ccccn3)nc2c1", "mg/L", 1.2],
  ["Cc1ccn2c(CN(CC(C)C)c3cccc(C(F)(F)F)c3)c(-c3ccccn3)nc2c1", "mg/L", 4.3],
  ["COc1ccc2nc(-c3ccccn3)c(N(C)c3ccc(F)cc3)n2c1", "mg/L", 0.7],
  ["NC(=O)c1ccc(-n2c(-c3ccccn3)nc3ccccc32)cc1", "mg/L", 20.1],
  ["Fc1ccc(Nc2c(-c3ccccn3)nc3sccn23)cc1", "mg/L", 2.0],
  ["Cc1ccc2nc(-c3ccccc3)c(CNc3ccc(F)cc3)n2c1", "mg/L", 21.2],
  ["CC(C)CN(c1ccc(F)cc1)c1c(-c2ccccn2)nc2ccccn12", "mg/L", 19.5]
]}

All values here come from paper PMC10714399.
